The measurements presented in this section are drawn from BigSolDB 2.1.

Settings: in methyl acetate, 283.15 K
Reported Property: solubility (mole fraction)
Write no unit; give the number alone.

molecule CC(C)(C)C(O)/C(=C\c1ccc(Cl)cc1)n1cncn1 (stereo unspecified) , solubility (mole fraction) observed: 0.00938

----------
Conditions: in n-propyl acetate, 313.15 K
Reported Property: solubility (mole fraction)
Write no unit; give the number alone.

molecule CC(C)(C)C(O)/C(=C\c1ccc(Cl)cc1)n1cncn1 (stereo unspecified) , solubility (mole fraction) observed: 0.037

----------
Conditions: in isobutanol, 308.15 K
Reported Property: solubility (mole fraction)
Write no unit; give the number alone.

molecule CC(C)(C)C(O)/C(=C\c1ccc(Cl)cc1)n1cncn1 (stereo unspecified) , solubility (mole fraction) observed: 0.0261
